Each recorded value in this set is attributed to patent US9957271B2.

This listing pairs molecules with measured Emax.
tested_system: SIRT1 (Homo sapiens, UniProt Q96EB6)
Sequence (Q96EB6 whole entry): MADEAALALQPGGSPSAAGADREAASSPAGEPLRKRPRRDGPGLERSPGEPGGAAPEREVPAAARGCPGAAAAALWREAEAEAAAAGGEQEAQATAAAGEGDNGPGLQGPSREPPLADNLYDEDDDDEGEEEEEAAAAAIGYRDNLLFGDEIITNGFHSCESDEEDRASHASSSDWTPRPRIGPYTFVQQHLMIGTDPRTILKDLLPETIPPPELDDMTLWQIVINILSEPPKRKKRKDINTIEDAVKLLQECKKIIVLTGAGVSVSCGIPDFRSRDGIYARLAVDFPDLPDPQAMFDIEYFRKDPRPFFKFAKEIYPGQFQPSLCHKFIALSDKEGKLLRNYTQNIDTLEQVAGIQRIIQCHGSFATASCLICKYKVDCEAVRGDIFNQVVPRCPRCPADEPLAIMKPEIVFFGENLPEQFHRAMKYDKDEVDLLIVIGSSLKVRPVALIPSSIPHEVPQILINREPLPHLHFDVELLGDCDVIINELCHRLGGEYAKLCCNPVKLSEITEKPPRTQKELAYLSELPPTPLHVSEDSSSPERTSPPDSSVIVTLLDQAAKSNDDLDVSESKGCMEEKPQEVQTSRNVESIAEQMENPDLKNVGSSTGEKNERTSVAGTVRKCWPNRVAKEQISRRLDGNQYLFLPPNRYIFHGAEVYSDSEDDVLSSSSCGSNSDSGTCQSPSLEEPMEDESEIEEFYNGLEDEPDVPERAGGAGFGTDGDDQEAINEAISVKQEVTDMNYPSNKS
protocol_description: TAMRA based mass spectrometry assay of SIRT1 activity
Assay type: biochemical
condition_info: TAMRA assay; percent maximum fold activation; read-out: TAMRA % Fold Act

{"columns": ["molecule", "tested_system", "value_reported"],
 "data": [
  ["O=C(Nc1ccccn1)c1cnn2ccc(-c3ccccc3C(F)(F)F)nc12", "SIRT1 (Homo sapiens, UniProt Q96EB6)", "≥ 350%"],
  ["Cc1cccc(-c2ccc3nc(C)c(C(=O)Nc4cccnn4)n3n2)c1", "SIRT1 (Homo sapiens, UniProt Q96EB6)", "< 350%"],
  ["O=C(Nc1ncc(F)cc1F)c1cnn2ccc(-c3ccccc3C(F)(F)F)nc12", "SIRT1 (Homo sapiens, UniProt Q96EB6)", "≥ 350%"],
  ["O=C(Nc1cnc2ccc(-c3ccccc3OC(F)(F)F)nn12)c1cnccn1", "SIRT1 (Homo sapiens, UniProt Q96EB6)", "≥ 350%"],
  ["Cc1nc2ccc(-c3ccccc3C(F)(F)F)nn2c1NC(=O)c1cnccn1", "SIRT1 (Homo sapiens, UniProt Q96EB6)", "< 350%"]
]}

Item Cc1cc(C)nc(NC(=O)c2cnn3ccc(-c4ccccc4OC(F)(F)F)nc23)c1 has what recorded Emax? ≥ 350%

Now give it for Cc1cncc(NC(=O)c2c(C)nn3ccc(-c4ccccc4C(F)(F)F)nc23)c1 too. ≥ 350%

Now give it for O=C(Nc1cnn2ccc(-c3ccccc3C(F)(F)F)nc12)c1cnc(O)cn1 too. ≥ 350%

Now give it for Cc1cccc(NC(=O)c2cnc3ccc(-c4ccccc4OC[C@H](O)CO)nn23)n1 too. ≥ 350%

Now give it for O=C(Nc1ccccn1)c1cnc2ccc(-c3cccc(OCC(O)CO)c3)nn12 (stereo not shown) too. < 350%
